System: Mus musculus
Assay: Toxicity in ovariectomized ICR mouse assessed as tail bleeding time at 110.3 nmol/kg, po for 90 mins
Format: organism-based
Details: in vivo, 1.5 h
Numbered stars: 1 amine (or outer) side, 2 acyl side, 3 side chain; on linkers, the order of the positions; unused ones are H or OH. Bridge positions count the residues as written; N and C are the ends. Peptide text beside a SMILES is read from it. I, II: the chains in the order shown. * marks the point of attachment. Estradiol(3-OCH2CO,17-OSuc) = C[C@]12CC[C@@H]3c4ccc(OCC(=O)[*:1])cc4CC[C@H]3[C@@H]1CC[C@@H]2OC(=O)CCC(=O)[*:2]; Acetyl(estradiol-3-yloxy) = C[C@]12CC[C@@H]3c4ccc(OCC(=O)*)cc4CC[C@H]3[C@@H]1CC[C@@H]2O; X1 = C[C@]12CC[C@@H]3c4ccc(OCC(=O)*)cc4CC[C@H]3[C@@H]1CCC2=O
assay_endpoint: Activity (s)
Report the value in s with no unit label.

Activity for C[C@]12CC[C@@H]3c4ccc(OCC(=O)N[C@@H](CCCNC(=N)N)C(=O)NCC(=O)N[C@@H](CC(=O)O)C(=O)N[C@@H](Cc5ccccc5)C(=O)N[C@@H](CCCNC(=N)N)C(=O)NCC(=O)N[C@@H](CC(=O)O)C(=O)N[C@@H](Cc5ccccc5)C(=O)O)cc4CC[C@H]3[C@@H]1CCC2=O (X1-RGDFRGDF-OH) is 574

Reported Activity of CC(C)[C@H](NC(=O)[C@H](CC(=O)O)NC(=O)CNC(=O)[C@H](CCCNC(=N)N)NC(=O)CCC(=O)O[C@H]1CC[C@H]2[C@@H]3CCc4cc(OCC(=O)N[C@@H](CCCNC(=N)N)C(=O)NCC(=O)N[C@@H](CC(=O)O)C(=O)N[C@H](C(=O)O)C(C)C)ccc4[C@H]3CC[C@]12C)C(=O)O (I: RGDV-OH / II: RGDV-OH; linker I:N-II:N via Estradiol(3-OCH2CO,17-OSuc)) : 532

Per the record, C[C@]12CC[C@@H]3c4ccc(OCC(=O)N[C@@H](CCCNC(=N)N)C(=O)NCC(=O)N[C@@H](CC(=O)O)C(=O)N[C@@H](Cc5ccccc5)C(=O)O)cc4CC[C@H]3[C@@H]1CC[C@@H]2O ({Acetyl(estradiol-3-yloxy)}-RGDF-OH) has Activity of 560

Form: molecule = C[C@]12CC[C@@H]3c4ccc(O)cc4CC[C@H]3[C@@H]1CC[C@@H]2O [ESTRADIOL] ; Activity = 441

Memo: C[C@]12CC[C@@H]3c4ccc(OCC(=O)N[C@@H](CCCNC(=N)N)C(=O)NCC(=O)N[C@@H](CC(=O)O)C(=O)N[C@@H](Cc5ccccc5)C(=O)O)cc4CC[C@H]3[C@@H]1CC[C@@H]2OC(=O)CCC(=O)N[C@@H](CCCNC(=N)N)C(=O)NCC(=O)N[C@@H](CC(=O)O)C(=O)N[C@@H](Cc1ccccc1)C(=O)O (I: RGDF-OH / II: RGDF-OH; linker I:N-II:N via Estradiol(3-OCH2CO,17-OSuc)) , reported Activity: 524

Lab note: C[C@]12CC[C@@H]3c4ccc(OCC(=O)N[C@@H](CCCNC(=N)N)C(=O)NCC(=O)N[C@@H](CC(=O)O)C(=O)N[C@@H](Cc5ccccc5)C(=O)O)cc4CC[C@H]3[C@@H]1CCC2=O (X1-RGDF-OH) gave Activity of 576

GET /value?item= C[C@]12CC[C@@H]3c4ccc(OCC(=O)N[C@@H](CCCNC(=N)N)C(=O)NCC(=O)N[C@@H](CC(=O)O)C(=O)N[C@@H](CO)C(=O)O)cc4CC[C@H]3[C@@H]1CCC2=O (X1-RGDS-OH) &field=Activity returns 568

# molecule C[C@]12CC[C@@H]3c4ccc(OCC(=O)N[C@@H](CCCNC(=N)N)C(=O)NCC(=O)N[C@@H](CC(=O)O)C(=O)N[C@@H](CO)C(=O)N[C@@H](CCCNC(=N)N)C(=O)NCC(=O)N[C@@H](CC(=O)O)C(=O)N[C@@H](CO)C(=O)O)cc4CC[C@H]3[C@@H]1CCC2=O (X1-RGDSRGDS-OH) ; its Activity = 516

Note to self: Activity recorded for CC(C)[C@H](NC(=O)[C@H](CC(=O)O)NC(=O)CNC(=O)[C@H](CCCNC(=N)N)NC(=O)COc1ccc2c(c1)CC[C@@H]1[C@@H]2CC[C@]2(C)[C@@H](O)CC[C@@H]12)C(=O)O ({Acetyl(estradiol-3-yloxy)}-RGDV-OH) was 577
